Origin of measurements: ChEMBL document CHEMBL1157539

# reported Inhibition; entries follow
System: HepG2
testDescription: GSK_TCMDC: Percent inhibition of human HepG2 cell line. Test compounds present at 10uM.
Type: functional
Answer format reminder: number followed by unit.

Worked examples, 4 molecules total:
COc1ccc2[nH]cc(C3CC4CCC(C3)N4CCC3CCN(C(=O)/C=C/c4ccc(Cl)c(Cl)c4)CC3)c2c1 (stereo not given) | 38%
O=C(NC1CCC(CN2CCC(c3c[nH]c4ccccc34)CC2)CC1)c1cc2ccccc2o1 (stereo not given) | 34%
COc1cc(NCCCNC(=O)c2cn(Cc3ccccc3)c3ccccc23)nc2ccccc12 | 13%
CN1CC=C(C=Cc2c[nH]c3ccccc23)CC1 | 14%

Inhibition reported for this molecule Oc1ccc(CN2CCN(CCOC(c3ccc(F)cc3)c3ccc(F)cc3)CC2)cc1Cl : 19%
